Measured Target: SIRT1 (Homo sapiens, UniProt Q96EB6)
Sequence (Q96EB6 whole entry): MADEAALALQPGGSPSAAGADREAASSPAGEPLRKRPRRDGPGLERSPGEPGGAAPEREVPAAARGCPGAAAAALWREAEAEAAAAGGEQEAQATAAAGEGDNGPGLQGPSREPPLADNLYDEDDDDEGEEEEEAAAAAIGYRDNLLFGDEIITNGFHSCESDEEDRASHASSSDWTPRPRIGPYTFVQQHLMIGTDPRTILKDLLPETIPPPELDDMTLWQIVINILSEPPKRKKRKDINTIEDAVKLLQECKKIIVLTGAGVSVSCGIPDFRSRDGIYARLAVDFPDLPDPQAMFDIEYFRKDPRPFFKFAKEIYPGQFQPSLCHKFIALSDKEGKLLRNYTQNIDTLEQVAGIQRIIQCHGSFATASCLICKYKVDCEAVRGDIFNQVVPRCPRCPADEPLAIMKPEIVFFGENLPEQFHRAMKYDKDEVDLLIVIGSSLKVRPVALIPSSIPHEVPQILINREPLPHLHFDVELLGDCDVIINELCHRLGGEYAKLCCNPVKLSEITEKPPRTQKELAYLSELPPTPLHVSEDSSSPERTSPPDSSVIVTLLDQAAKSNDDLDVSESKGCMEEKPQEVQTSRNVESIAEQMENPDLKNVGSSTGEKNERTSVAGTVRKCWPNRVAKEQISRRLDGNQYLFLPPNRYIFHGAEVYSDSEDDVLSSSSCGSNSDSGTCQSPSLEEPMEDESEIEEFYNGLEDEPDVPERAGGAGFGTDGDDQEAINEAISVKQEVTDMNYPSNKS
Experiment Summary: Trp mass spectrometry assay of SIRT1 activation (Ac-R-H-K-K(Ac)-W-NH2 peptide)
Type: biochemical
Study Conditions: 25 min, Trp peptide 0.5 μM, 120 μM βNAD+, 10 nM SIRT1, 25 min at 25° C.; relative to control (100%); read-out: TRP MAX RESP (percent maximum fold activation)
Measured Emax values are reported for all entries that follow.

// known answers, use as guide
> print(dat)
                                item.smiles  experimental.result
1  N#Cc1ccc(NC(=O)N2c3nc(C(=O)NCC(F)(F)F)ccc3N3CC[C@H]2C3)nc1               > 150%
2  O=C(NCC(F)(F)F)c1ccc2c(n1)N(C(=O)Nc1cccc[n+]1[O-])[C@H]1CC[N+]2([O-])C1               > 150%
3  Cc1ncc(-c2ccnc(NC(=O)N3c4nc(C(=O)N[C@H](C)C(F)(F)F)ccc4N4CC[C@H]3C4)n2)o1               > 150%

Problem: Report measured Emax; entry is `O=C(NCC(F)(F)F)c1ccc2c(n1)N(C(=O)Nc1cc(-c3cnco3)ccn1)[C@H]1CCN2C1`
Solution: > 150%

Problem: Report measured Emax; entry is `C[C@@H](NC(=O)c1ccc2c(n1)N(C(=O)Nc1cc(OCCN)ccn1)[C@H]1CCN2C1)C(F)(F)F`
Solution: > 150%

Problem: Report measured Emax; entry is `C[C@@H](NC(=O)c1ccc2c(n1)N(C(=O)Nc1ccc(OC[C@H](O)CO)nn1)[C@H]1CCN2C1)C(F)(F)F`
Solution: > 150%

Problem: Report measured Emax; entry is `CC(C)(C#N)NC(=O)c1ccc2c(n1)N(C(=O)Nc1ccccn1)[C@H]1CCN2C1`
Solution: > 150%

----------
Measured Emax values are reported for all entries that follow.
Measured Target: SIRT1 (Homo sapiens, UniProt Q96EB6)
Experiment Summary: Trp mass spectrometry assay of SIRT1 activation (Ac-R-H-K-K(Ac)-W-NH2 peptide)
Assay type: biochemical
Study Conditions: 25 min, Trp peptide 0.5 μM, 120 μM βNAD+, 10 nM SIRT1, 25 min at 25° C.; relative to control (100%); read-out: TRP MAX RESP (percent maximum fold activation)
Procedure: The Trp mass spectrometry assay was conducted as follows. […] The SIRT1 protein was obtained by cloning the SirT1 gene into a T7-promoter containing vector, which was then expressed in BL21(DE3) bacterial cells and purified as described in further detail below. Test compound was added at varying concentrations to this reaction mixture and the resulting reactions were monitored. After the 25 minute incubation with SIRT1, 10 μL of 10% formic acid was added to stop the reaction. […]

// known answers, use as guide
> print(dat)
                                   compound  readout.label  experimental.result
1  CC(C)(O)CNC(=O)c1ccc2c(n1)N(C(=O)Nc1ccccn1)[C@H]1CCN2C1           Emax               > 150%
2  C[C@@H](NC(=O)c1ccc2c(n1)N(C(=O)Nc1cccnn1)[C@H]1CCN2C1)C(F)(F)F           Emax               > 150%
3  O=C(NCC1(O)CC1)c1ccc2c(n1)N(C(=O)Nc1ccccn1)[C@H]1CCN2C1           Emax               > 150%
4  C[C@@H](NC(=O)c1ccc2c(n1)N(C(=O)Nc1cc(CCC(O)CO)ccn1)[C@H]1CCN2C1)C(F)(F)F (single isomer, unassigned)           Emax               < 150%
5  Cc1ncc(-c2ccnc(NC(=O)N3c4nc(C(=O)NCC(F)(F)F)ccc4N4CC[C@H]3C4)n2)o1           Emax               > 150%

Problem: Report measured Emax; entry is `Cc1cnnc(NC(=O)N2c3nc(C(=O)N[C@H](C)C(F)(F)F)ccc3N3CC[C@H]2C3)c1`
Solution: < 150%

Problem: Report measured Emax; entry is `C[C@@H](NC(=O)c1ccc2c(n1)N(C(=O)Nc1cc[nH]n1)[C@H]1CCN2C1)C(F)(F)F`
Solution: > 150%
